Attribute: EC50
# TARGET_DESC: Ab-15
# Sequence (heavy, as listed by the source, chain 1 of 2): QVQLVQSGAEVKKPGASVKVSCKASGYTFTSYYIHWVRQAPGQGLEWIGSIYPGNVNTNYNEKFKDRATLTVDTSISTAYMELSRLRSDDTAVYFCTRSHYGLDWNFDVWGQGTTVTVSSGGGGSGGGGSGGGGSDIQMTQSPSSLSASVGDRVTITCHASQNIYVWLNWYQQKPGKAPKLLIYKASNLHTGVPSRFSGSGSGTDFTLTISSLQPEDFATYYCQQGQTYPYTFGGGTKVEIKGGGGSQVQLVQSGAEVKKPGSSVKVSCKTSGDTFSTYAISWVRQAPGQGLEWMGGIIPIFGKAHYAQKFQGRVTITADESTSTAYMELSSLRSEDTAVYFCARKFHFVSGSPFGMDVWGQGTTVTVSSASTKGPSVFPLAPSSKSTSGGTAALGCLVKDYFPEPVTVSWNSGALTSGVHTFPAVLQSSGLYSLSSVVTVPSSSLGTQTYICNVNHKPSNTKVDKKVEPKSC
# Sequence (light, as listed by the source, chain 2 of 2): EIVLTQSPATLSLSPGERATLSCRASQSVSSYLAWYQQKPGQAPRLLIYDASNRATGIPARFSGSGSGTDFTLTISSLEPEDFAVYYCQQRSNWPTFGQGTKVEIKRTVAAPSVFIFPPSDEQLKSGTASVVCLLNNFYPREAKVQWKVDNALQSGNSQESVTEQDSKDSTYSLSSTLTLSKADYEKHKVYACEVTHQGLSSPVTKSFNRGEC
# METHOD_SUMMARY: binding ELISA: biotinylated peptide on neutravidin plate, Ab-15 titrated
Where no end group is shown, it is not given here.
Provide only the numeric value, understood in nM.

binder="IDWCPLHLWHECYH (cysteine pairing not given here; also: biotinylated, site not given here, CD28 peptide mask) [Peptide-72]" observable=EC50 result=13.3
binder="IDWCPRYLWDECYN (cysteine pairing not given here; also: biotinylated, site not given here, CD28 peptide mask) [Peptide-71]" observable=EC50 result=2.1
binder="MDWCPRDLWVHCFA (cysteine pairing not given here; also: biotinylated, site not given here, CD28 peptide mask) [Peptide-41]" observable=EC50 result=1
binder="VPWCQIISGLECLT (cysteine pairing not given here; also: biotinylated, site not given here, CD28 peptide mask) [Peptide-73]" observable=EC50 result=54.9
binder="LDWCPRHLWALCFN (cysteine pairing not given here; also: biotinylated, site not given here, CD28 peptide mask) [Peptide-70]" observable=EC50 result=8.2

Here's the next entry for you.
Find the recorded EC50 belonging to IYWCPIDRWNDCYN (cysteine pairing not given here; also: biotinylated, site not given here, CD28 peptide mask) [Peptide-74] and report it.
7.6
